- TARGET SYSTEM: E. coli LpxA (Escherichia coli)
- ASSAY EXPLANATION: LpxA enzyme inhibition (TLC of radiolabeled UDP-GlcNAc acylation)
- Type: biochemical
- COND: test compound dilution 5 mM; percentage of control, lower is better
Reported remaining activity at 5000 µM (stock) values are given for each entry in this list.
READOUT: remaining activity at 5000 µM (stock) (%)

[[record]]
query_smiles = "O=C(O)/C=C/c1cccc(Cc2sc(/C=C/C(=O)O)cc2-c2nnn[nH]2)c1"
unit_name = "%"
result_number = 3

[[record]]
query_smiles = "Cn1nnnc1-c1cc(-c2ccc(F)cc2)sc1/C=C/C(=O)O"
unit_name = "%"
result_number = 47.3

[[record]]
query_smiles = "O=C(O)/C=C/c1cc(-c2nnn(CCC(=O)O)n2)c(Cc2ccccc2)s1"
unit_name = "%"
result_number = 5.1

[[record]]
query_smiles = "COC(=O)/C=C/c1sc(-c2ccc(F)cc2)cc1-c1nnn[nH]1"
unit_name = "%"
result_number = 4

[[record]]
query_smiles = "COC(=O)/C=C/c1cc(-c2nnn[nH]2)c(-c2cccc3ccccc23)s1"
unit_name = "%"
result_number = 1.1

[[record]]
query_smiles = "O=C(O)/C=C/c1sc(-c2ccc(-c3ccccc3)cc2)cc1-c1nnn[nH]1"
unit_name = "%"
result_number = 4.4

[[record]]
query_smiles = "COC(=O)/C=C/c1sc(Cc2ccccc2)cc1-c1nnn[nH]1"
unit_name = "%"
result_number = 0.9

[[record]]
query_smiles = "O=C(O)/C=C/c1cc(-c2nnn[nH]2)c(-c2cccc3ccccc23)s1"
unit_name = "%"
result_number = 7.3

[[record]]
query_smiles = "O=C(O)/C=C/c1cc(-c2nnn[nH]2)c(-c2ccc(F)cc2)s1"
unit_name = "%"
result_number = 37.9

[[record]]
query_smiles = "O=C(O)C(=Cc1cc(-c2nnn[nH]2)c(Cc2ccccc2)s1)C(=O)O"
unit_name = "%"
result_number = 5.4

[[record]]
query_smiles = "O=C1NC(=O)C(=Cc2sc(Cc3ccccc3)cc2-c2nnn[nH]2)S1"
unit_name = "%"
result_number = 10.3


====

- TARGET SYSTEM: E. coli LpxA (Escherichia coli, UniProt P0A722)
- Sequence (P0A722 whole entry): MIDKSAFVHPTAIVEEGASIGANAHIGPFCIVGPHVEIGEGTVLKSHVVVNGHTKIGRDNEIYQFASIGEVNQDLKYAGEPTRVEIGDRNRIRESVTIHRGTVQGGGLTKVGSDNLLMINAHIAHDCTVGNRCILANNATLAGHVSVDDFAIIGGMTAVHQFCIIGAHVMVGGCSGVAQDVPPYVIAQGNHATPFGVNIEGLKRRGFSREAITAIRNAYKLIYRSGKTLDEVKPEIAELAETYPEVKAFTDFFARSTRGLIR
- ASSAY EXPLANATION: LpxA enzyme inhibition (TLC of radiolabeled UDP-GlcNAc acylation)
- Format: biochemical
- COND: test compound dilution 500 μM; percentage of control, lower is better
// classify(record): look up remaining activity at 500 µM (stock) in ranges lo = under 60%, med = from 60% up to 90%, hi = 90% and over

[[record]]
compound = "COC(=O)/C=C/c1cc(-c2nnn(C)n2)c(Cc2ccccc2)s1 [DNM0226]"
label_value = "hi"

[[record]]
compound = "COC(=O)/C=C/c1sc(-c2ccc(F)cc2)cc1-c1nnn[nH]1 [DNM0229]"
label_value = "lo"

[[record]]
compound = "O=C1NC(=O)C(=Cc2sc(Cc3ccccc3)cc2-c2nnn[nH]2)S1 [DNM0246]"
label_value = "hi"

[[record]]
compound = "O=C(O)/C=C/c1cc(-c2nnn[nH]2)c(-c2ccc(-c3ccccc3)cc2)s1 [DNM0225]"
label_value = "med"

[[record]]
compound = "Cn1nnnc1-c1cc(-c2ccc(F)cc2)sc1/C=C/C(=O)O [DNM0233]"
label_value = "hi"

[[record]]
compound = "Cn1nnc(-c2cc(/C=C/C(=O)O)sc2Cc2ccccc2)n1 [DNM0197]"
label_value = "med"

[[record]]
compound = "O=C(O)C(=Cc1cc(-c2nnn[nH]2)c(Cc2ccccc2)s1)C(=O)O [DNM0264]"
label_value = "lo"


====

- TARGET SYSTEM: E. coli LpxA (Escherichia coli, UniProt P0A722)
- ASSAY EXPLANATION: LpxA enzyme inhibition (TLC of radiolabeled UDP-GlcNAc acylation)
- Assay type: biochemical
- COND: test compound dilution 5 mM; percentage of control, lower is better
Each entry below carries its recorded remaining activity at 5000 µM (stock).
READOUT: remaining activity at 5000 µM (stock) (%)

[[record]]
query_smiles = "COC(=O)/C=C/c1cc(-c2nnn(C)n2)c(Cc2ccccc2)s1"
unit_name = "%"
result_number = 93

[[record]]
query_smiles = "O=C(O)/C=C/c1cc(-c2nnn[nH]2)c(-c2ccc(-c3ccccc3)cc2)s1"
unit_name = "%"
result_number = 7.3

[[record]]
query_smiles = "Cn1nnnc1-c1cc(/C=C/C(=O)O)sc1Cc1ccccc1"
unit_name = "%"
result_number = 5.8

[[record]]
query_smiles = "COC(=O)/C=C/c1cc(-c2nnnn2C)c(Cc2ccccc2)s1"
unit_name = "%"
result_number = 86.6

[[record]]
query_smiles = "Cn1nnc(-c2cc(/C=C/C(=O)O)sc2Cc2ccccc2)n1"
unit_name = "%"
result_number = 20.2


====

- TARGET SYSTEM: E. coli LpxA (Escherichia coli, UniProt P0A722)
- ASSAY EXPLANATION: LpxA enzyme inhibition (TLC of radiolabeled UDP-GlcNAc acylation)
- Assay type: biochemical
- COND: test compound dilution 500 μM; percentage of control, lower is better
READOUT: remaining activity at 500 µM (stock) (%)

[[record]]
query_smiles = "COC(=O)/C=C/c1cc(-c2nnnn2C)c(Cc2ccccc2)s1"
target_system = "E. coli LpxA (Escherichia coli, UniProt P0A722)"
unit_name = "%"
result_number = 92.1

[[record]]
query_smiles = "O=C(O)/C=C/c1cc(-c2nnn(CCC(=O)O)n2)c(Cc2ccccc2)s1"
target_system = "E. coli LpxA (Escherichia coli, UniProt P0A722)"
unit_name = "%"
result_number = 62.9

[[record]]
query_smiles = "O=C(O)/C=C/c1sc(-c2ccc(-c3ccccc3)cc2)cc1-c1nnn[nH]1"
target_system = "E. coli LpxA (Escherichia coli, UniProt P0A722)"
unit_name = "%"
result_number = 78.5

[[record]]
query_smiles = "COC(=O)/C=C/c1sc(Cc2ccccc2)cc1-c1nnn[nH]1"
target_system = "E. coli LpxA (Escherichia coli, UniProt P0A722)"
unit_name = "%"
result_number = 69.2

[[record]]
query_smiles = "Cn1nnnc1-c1cc(/C=C/C(=O)O)sc1Cc1ccccc1"
target_system = "E. coli LpxA (Escherichia coli, UniProt P0A722)"
unit_name = "%"
result_number = 43.9


====

- TARGET SYSTEM: E. coli LpxA (Escherichia coli, UniProt P0A722)
- ASSAY EXPLANATION: LpxA enzyme inhibition (TLC of radiolabeled UDP-GlcNAc acylation)
- Type: biochemical
- COND: test compound dilution 500 μM; percentage of control, lower is better
- Method: Measurement of LpxA activity was based on increased mobility of radiolabeled UDP-N-acetyl-D-glucosamine on thin layer chromatography (TLC) plates upon acylation. One μl of test compound of appropriate dilution in ethanol was mixed with 2.5 μM β-hydroxy-myristoyl-ACP and 0.5 μM E. coli LpxA in 1% bovine serum albumin and 40 mM Na-Hepes (pH 8.0) at room temperature (total volume 8 μl). […]
The following compounds are listed with their measured remaining activity at 500 µM (stock) values.
READOUT: remaining activity at 500 µM (stock) (%)

[[record]]
query_smiles = "O=C(O)/C=C/c1cc(-c2nnn[nH]2)c(-c2ccc(F)cc2)s1"
result_number = 88.7

[[record]]
query_smiles = "COC(=O)/C=C/c1cc(-c2nnn[nH]2)c(-c2cccc3ccccc23)s1"
result_number = 92.1

[[record]]
query_smiles = "O=C(O)/C=C/c1cc(-c2nnn[nH]2)c(-c2cccc3ccccc23)s1"
result_number = 59.6

[[record]]
query_smiles = "O=C(O)/C=C/c1cccc(Cc2sc(/C=C/C(=O)O)cc2-c2nnn[nH]2)c1"
result_number = 89.7

